Target: T1, human PCSK9 (proprotein convertase subtilisin kexin type 9) (human, UniProt Q8NBP7 31-692)
T1 construct: Directly immobilized (SPR ProteOn), biotinylated (BLI), or in solution, depending on the assay; also called hPCSK9
Test: FRET, competitor EGFA peptide
# note: exactly 3 nM is not below, so it is no; use yes for EC50 strictly under it

Here's what some known entries look like.
Exercise: Strictly below 3 nM in EC50? 1459D05 (designed binder, also called ATI000891; ATI-891) MGVSDVPRDLEVVAATPTSLLISWPPPSHGYGYYRITYGETGGNSPVQEFTVPPGKGTATISGLKPGVDYTITVYAVEYPYKHSGYYHRPISINYRTEIDKPSQHHHHHH
Solution: no

Exercise: Strictly below 3 nM in EC50? 2451B06 (designed binder, Anti-PCSK9 Adnectin, His6-tagged; also called 2451B06 (equivalent to 2382D05)) MGVSDVPRDLEVVAATPTSLLISWDAPADGGYGYYRITYGETGGNSPVQEFTVPVSKGTATISGLKPGVDYTITVYAVEFDFPGAGYYHRPISINYRTEIDKPSQHHHHHH
Solution: no

Exercise: Strictly below 3 nM in EC50? 2382B09 (designed binder, Anti-PCSK9 Adnectin, His6-tagged) MGVSDVPRDLEVVAATPTSLLISWDAPADAYGYYRITYGETGGNSPVQEFTVPVSKGTATISGLKPGVDYTITVYAVEFDYPGSGYYHRPISINYRTEIDKPSQHHHHHH
Solution: no

Exercise: Strictly below 3 nM in EC50? 2382H10 (designed binder, Anti-PCSK9 Adnectin, His6-tagged) MGVSDVPRDLEVVAATPTSLLISWDAPAGGYGYYRITYGETGGNSPVQEFTVPVSKGTATISGLKPGVDYTITVYAVEFDFPGSGYYHRPISINYRTEIDKPSQHHHHHH
Solution: yes

Exercise: Strictly below 3 nM in EC50? 2451H07 (designed binder, Anti-PCSK9 Adnectin, His6-tagged) MGITDVPRDLEVVAATPTSLLISWNPPDVNYGYYRITYGETGGNSPLQEFTVPVSKGTATISGLKPGVDYTITVYAVEYPYAHAGYYHRPISINYRTEIDKPSQHHHHHH
Solution: yes

Exercise: Strictly below 3 nM in EC50? 2382H09 (designed binder, Anti-PCSK9 Adnectin, His6-tagged) MGVSDVPRDLEVVAATPTSLLISWDAPAAAYGYYRITYGETGGNSPVQEFTVPSSKGTATISGLKPGVDYTITVYAVEFDFPGSGYYHRPISINYRTEIDKPSQHHHHHH
Solution: yes

More entries:
Exercise: Strictly below 3 nM in EC50? 2011H05 (designed binder, Anti-PCSK9 Adnectin, His6-tagged; also called ATI001091) MGVSDVPRDLEVVAATPTSLLISWVPSSHAYGYYRITYGETGGNSPVQEFTVPVGVGTATISGLKPGVDYTITVYAVEYAFEGAGYYHRPISINYRTEIDKPSQHHHHHH
Solution: yes
